Target: mouse TMEM16A mutant P595A (Mus musculus, UniProt Q8BHY3, P595A)
Construct: expressed in transfected cells; host or cells: HEK293T
Sequence (Q8BHY3 1-960 P595A): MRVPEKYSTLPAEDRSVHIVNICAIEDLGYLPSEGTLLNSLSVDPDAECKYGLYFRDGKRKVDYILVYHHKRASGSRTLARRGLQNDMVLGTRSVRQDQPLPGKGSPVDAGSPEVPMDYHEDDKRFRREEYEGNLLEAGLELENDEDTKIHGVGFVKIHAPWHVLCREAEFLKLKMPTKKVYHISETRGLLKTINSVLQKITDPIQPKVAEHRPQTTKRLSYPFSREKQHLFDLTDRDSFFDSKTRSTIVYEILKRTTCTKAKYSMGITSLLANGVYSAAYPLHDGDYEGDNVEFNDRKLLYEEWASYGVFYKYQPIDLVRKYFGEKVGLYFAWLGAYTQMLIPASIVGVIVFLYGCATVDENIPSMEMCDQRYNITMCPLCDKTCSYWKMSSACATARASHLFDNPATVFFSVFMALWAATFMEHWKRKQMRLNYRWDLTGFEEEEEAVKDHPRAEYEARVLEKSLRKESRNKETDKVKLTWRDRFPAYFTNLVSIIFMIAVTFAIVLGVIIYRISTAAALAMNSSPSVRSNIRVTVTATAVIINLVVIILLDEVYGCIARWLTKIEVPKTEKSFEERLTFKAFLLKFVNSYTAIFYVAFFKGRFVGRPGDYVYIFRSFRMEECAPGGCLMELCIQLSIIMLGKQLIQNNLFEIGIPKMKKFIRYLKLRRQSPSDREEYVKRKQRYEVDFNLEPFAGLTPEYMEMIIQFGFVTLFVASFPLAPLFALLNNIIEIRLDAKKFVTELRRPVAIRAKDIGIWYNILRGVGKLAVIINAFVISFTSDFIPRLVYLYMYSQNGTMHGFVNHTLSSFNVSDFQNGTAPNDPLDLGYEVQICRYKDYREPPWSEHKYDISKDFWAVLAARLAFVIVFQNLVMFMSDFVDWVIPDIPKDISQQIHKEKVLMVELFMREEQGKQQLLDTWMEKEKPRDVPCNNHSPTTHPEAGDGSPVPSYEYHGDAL
Assay: Inside-out patch recording of 1PBC block, mutant P595A
Format: cell-based
Details: P595A; V 80 mV
OUTCOME MEASURE: pIC50
# reply with the number alone; pIC50 is -log10 of concentration in mol/L

Retrieve pIC50 measured for N#Cc1c(C(F)(F)F)cc(O)n2c1nc1ccccc12 [1PBC] and print it.
5.80

* * *

target: mouse TMEM16A mutant G558P (Mus musculus, UniProt Q8BHY3, G558P); construct: expressed in transfected cells; host or cells: HEK293T; test: Inside-out patch recording of 1PBC block, mutant G558P; format: cell-based; conditions: G558P; V -100 mV
OUTCOME MEASURE: IC50 (µM)
Just the number in µM, nothing appended.

Please give measured IC50 of the following entry: `N#Cc1c(C(F)(F)F)cc(O)n2c1nc1ccccc12`
21.1

* * *

Target: mouse TMEM16A mutant T539A (Mus musculus, UniProt Q8BHY3, T539A)
Construct: expressed in transfected cells; host or cells: HEK293T
Assay: Inside-out patch recording of 1PBC block, mutant T539A
Assay type: cell-based
Details: -120 mV; 2 µM Ca2+
Description: HEK293T cells (ATCC CRL-1573) were maintained in Dulbecco’s modified Eagle’s medium (DMEM; Sigma-Aldrich) supplemented with 10 U ml^−1 penicillin, 0.1 mg ml^−1 streptomycin (Sigma-Aldrich), 2 mM L-glutamine (Sigma-Aldrich), and 10% FBS (Sigma-Aldrich) in a humidified atmosphere containing 5% CO2 at 37 °C. […]
OUTCOME MEASURE: pIC50
Quick note: pIC50 means taking -log10 of the concentration in moles per liter.

Give the value of pIC50 reported for the following: `N#Cc1c(C(F)(F)F)cc(O)n2c1nc1ccccc12`
4.41

Hey, just so you know, these numbers are from paper PMC9120017.
